# Tested on: Rat whole blood (RWB)
# PROTOCOL_DESCRIPTION: LTB4 secretion assay in RWB (rat whole blood)
# Format: cell-based
# CONDITION_LABEL: Rattus norvegicus

>  <COMPOUND>
Cc1ccc(Oc2ccc(CNc3nc4ccc(N)cc4n3C)cc2)nn1

>  <STUDY_SYSTEM>
Rat whole blood (RWB)

>  <EC50>
< 10 µM

$$$$
>  <COMPOUND>
Cn1c(NCc2ccc(Oc3cnc(Cl)nc3)cc2)nc2ccc(NC3COC3)cc21

>  <STUDY_SYSTEM>
Rat whole blood (RWB)

>  <EC50>
< 10 µM

$$$$
>  <COMPOUND>
CC(C)(C)Nc1nc2ccc(N)cc2n1CC(=O)Nc1ccc(OC(F)(F)F)cc1

>  <STUDY_SYSTEM>
Rat whole blood (RWB)

>  <EC50>
> 20 µM

$$$$
>  <COMPOUND>
Cn1nc(Nc2ccc3nc(NCc4ccc(Oc5ncc(C(F)(F)F)cn5)cc4)n(C)c3c2)cc1C(F)(F)F

>  <STUDY_SYSTEM>
Rat whole blood (RWB)

>  <EC50>
< 10 µM

$$$$
>  <COMPOUND>
Cn1c(NCc2ccc(Oc3ccc(C#N)cn3)cc2)nc2ccc(NC3COC3)cc21

>  <STUDY_SYSTEM>
Rat whole blood (RWB)

>  <EC50>
< 10 µM

$$$$
>  <COMPOUND>
Cn1nc(Nc2ccc3nc(NCc4ccc(Oc5ncc(Cl)cn5)cc4)n(C)c3c2)cc1C(F)F

>  <STUDY_SYSTEM>
Rat whole blood (RWB)

>  <EC50>
< 10 µM

$$$$
>  <COMPOUND>
CCn1c(NCc2ccc(Oc3ncc(OC(F)(F)F)cn3)cc2)nc2ccc(Nc3cc(C(F)(F)F)n(C)n3)cc21

>  <STUDY_SYSTEM>
Rat whole blood (RWB)

>  <EC50>
< 10 µM

$$$$
>  <COMPOUND>
Cn1ccc(Nc2ccc3nc(NCc4ccc(Oc5ccc(Cl)cn5)cc4)n(C)c3c2)n1

>  <STUDY_SYSTEM>
Rat whole blood (RWB)

>  <EC50>
< 10 µM

$$$$
>  <COMPOUND>
Cn1c(NCc2ccc(Oc3cccnc3)cc2)nc2ccc(NC3COC3)cc21

>  <STUDY_SYSTEM>
Rat whole blood (RWB)

>  <EC50>
< 10 µM

$$$$
>  <COMPOUND>
Nc1ccc2nc(NC3CCCC3)n(Cc3ccc(Oc4ccc(Cl)cc4)cc3)c2c1

>  <STUDY_SYSTEM>
Rat whole blood (RWB)

>  <EC50>
10 to 20 µM

$$$$
>  <COMPOUND>
Cn1c(NCc2ccc(Oc3ncc(Cl)cn3)cc2)nc2ccc(Nc3cc(C(F)(F)F)[nH]n3)cc21

>  <STUDY_SYSTEM>
Rat whole blood (RWB)

>  <EC50>
< 10 µM

$$$$
>  <COMPOUND>
Cn1c(NCc2ccc(Oc3ccc(Cl)cn3)nc2)nc2ccc(NC3COC3)cc21

>  <STUDY_SYSTEM>
Rat whole blood (RWB)

>  <EC50>
> 20 µM

$$$$
>  <COMPOUND>
Cn1c(NCc2ccc(Oc3cnc(N)nc3)cc2)nc2ccc(N)cc21

>  <STUDY_SYSTEM>
Rat whole blood (RWB)

>  <EC50>
< 10 µM

$$$$
>  <COMPOUND>
Cc1cc(Nc2ccc3nc(NCc4ccc(Oc5nccc(Cl)n5)cc4)n(C)c3c2)n[nH]1

>  <STUDY_SYSTEM>
Rat whole blood (RWB)

>  <EC50>
< 10 µM

$$$$
>  <COMPOUND>
Cn1c(NCc2ccc(Oc3ccc(Cl)cn3)cc2)nc2ccc(NC3COC3)cc21

>  <STUDY_SYSTEM>
Rat whole blood (RWB)

>  <EC50>
< 10 µM

$$$$
>  <COMPOUND>
CCC(Nc1nc2ccc(NC3COC3)cc2n1C)c1ccc(Oc2ncc(C(F)(F)F)cn2)cc1F (stereo not drawn)

>  <STUDY_SYSTEM>
Rat whole blood (RWB)

>  <EC50>
< 10 µM

$$$$
>  <COMPOUND>
Fc1ccc(CNc2nc3ccc(N4CCC(Oc5ccc(OC(F)(F)F)cc5)C4)cc3[nH]2)cc1 (stereo not drawn)

>  <STUDY_SYSTEM>
Rat whole blood (RWB)

>  <EC50>
< 10 µM

$$$$
>  <COMPOUND>
Nc1ccc2[nH]c(NCc3ccc4oc(-c5ccc(OC(F)(F)F)cc5)nc4c3)nc2c1

>  <STUDY_SYSTEM>
Rat whole blood (RWB)

>  <EC50>
> 20 µM

$$$$
>  <COMPOUND>
Nc1nc2ccc(NC3COC3)cc2n1Cc1ccc(Oc2ccc(Cl)cc2)cc1

>  <STUDY_SYSTEM>
Rat whole blood (RWB)

>  <EC50>
< 10 µM

$$$$
>  <COMPOUND>
Nc1ccc2[nH]c(NCc3ccc(Sc4ccc(Cl)cc4)cc3)nc2c1

>  <STUDY_SYSTEM>
Rat whole blood (RWB)

>  <EC50>
< 10 µM

$$$$
>  <COMPOUND>
Cn1c(NCc2ccc(Oc3ncc(Cl)cn3)cc2)nc2ccc(Nc3nc(C(F)(F)F)cs3)cc21

>  <STUDY_SYSTEM>
Rat whole blood (RWB)

>  <EC50>
< 10 µM

$$$$
>  <COMPOUND>
CC(C)(Nc1ccc2[nH]c(NCc3ccc(Oc4ccc(Cl)cn4)cc3)nc2c1)C(N)=O

>  <STUDY_SYSTEM>
Rat whole blood (RWB)

>  <EC50>
< 10 µM

$$$$
>  <COMPOUND>
CC(CC(F)(F)F)Oc1ccc(CNc2nc3ccc(N)cc3[nH]2)cc1 (stereo not drawn)

>  <STUDY_SYSTEM>
Rat whole blood (RWB)

>  <EC50>
10 to 20 µM

$$$$
>  <COMPOUND>
Nc1ccc2c(c1)nc(N1CCCC1)n2CCOc1ccc(OC(F)(F)F)cc1

>  <STUDY_SYSTEM>
Rat whole blood (RWB)

>  <EC50>
> 20 µM

$$$$
>  <COMPOUND>
Cc1cc(Nc2cnc3nc(NCc4ccc(Oc5ncc(Cl)cn5)cc4)n(C)c3c2)n[nH]1

>  <STUDY_SYSTEM>
Rat whole blood (RWB)

>  <EC50>
> 20 µM

$$$$
>  <COMPOUND>
Cn1c(NCc2ccc(COc3ccc(Cl)cn3)cc2)nc2ccc(NC3COC3)cc21

>  <STUDY_SYSTEM>
Rat whole blood (RWB)

>  <EC50>
> 20 µM

$$$$
>  <COMPOUND>
CN(c1ccc2nc(NCc3ccc(Oc4ccc(Cl)cn4)cc3)n(C)c2c1)C1COC1

>  <STUDY_SYSTEM>
Rat whole blood (RWB)

>  <EC50>
< 10 µM

$$$$
>  <COMPOUND>
Nc1ccc2[nH]c(NCc3ccc(Oc4ccc(Cl)c(Cl)c4)cc3)nc2c1

>  <STUDY_SYSTEM>
Rat whole blood (RWB)

>  <EC50>
10 to 20 µM

$$$$
>  <COMPOUND>
CCn1c(NCc2ccc(Oc3ncc(Cl)cn3)cc2)nc2ccc(Nc3n[nH]c(C)c3Cl)cc21

>  <STUDY_SYSTEM>
Rat whole blood (RWB)

>  <EC50>
< 10 µM

$$$$
>  <COMPOUND>
Cc1cc(Nc2cc(F)c3nc(NCc4ccc(Oc5ncc(Cl)cn5)cc4)n(C)c3c2)n[nH]1

>  <STUDY_SYSTEM>
Rat whole blood (RWB)

>  <EC50>
< 10 µM

$$$$
>  <COMPOUND>
COCCn1c(NCc2ccc(Oc3ccc(Cl)cn3)cc2)nc2ccc(NC3COC3)cc21

>  <STUDY_SYSTEM>
Rat whole blood (RWB)

>  <EC50>
< 10 µM

$$$$
>  <COMPOUND>
CNc1nc2ccc(N)cc2n1Cc1ccc(Oc2ccc(Cl)cc2)cc1

>  <STUDY_SYSTEM>
Rat whole blood (RWB)

>  <EC50>
> 20 µM

$$$$
>  <COMPOUND>
Cn1c(NCc2ccc(Oc3ccc(Cl)cn3)cc2Cl)nc2ccc(NC3COC3)cc21

>  <STUDY_SYSTEM>
Rat whole blood (RWB)

>  <EC50>
> 20 µM

$$$$

All values here come from patent US11447486B2.
